- Test system: E. coli AG100
- method.description: Broth microdilution MIC, E. coli AG100 (wild-type parent)
- Assay type: cell-based
- test.context: Escherichia coli; wild-type parent E. coli AG100, broth microdilution; read-out: MIC E. coli AG100
Here the recorded MIC is given for each entry.
recorded.endpoint: MIC

CCN1CCN(C(=O)N[C@@H](C(=O)N[C@H]2Cc3cccc(C(=O)O)c3OB2O)c2ccc(S(N)(=O)=O)c(OC)c2)C(=O)C1=O [Example 169]
32 to 64 µg/mL
CCN1CCN(C(=O)NC(C(=O)N[C@H]2Cc3cccc(C(=O)O)c3OB2O)c2cccc(O)n2)C(=O)C1=O (stereo partly drawn) [Example 117]
> 128 µg/mL
CCN1CCN(C(=O)N[C@@H](C(=O)N[C@H]2Cc3ccc(F)c(C(=O)O)c3OB2O)[C@@H](C)O)C(=O)C1=O [Example 110]
8 to 16 µg/mL

----------
Measured EC50, listed per entry.
- tgt: E. coli PBP1a (Escherichia coli (strain K12))
- Sequence (P02918 whole entry): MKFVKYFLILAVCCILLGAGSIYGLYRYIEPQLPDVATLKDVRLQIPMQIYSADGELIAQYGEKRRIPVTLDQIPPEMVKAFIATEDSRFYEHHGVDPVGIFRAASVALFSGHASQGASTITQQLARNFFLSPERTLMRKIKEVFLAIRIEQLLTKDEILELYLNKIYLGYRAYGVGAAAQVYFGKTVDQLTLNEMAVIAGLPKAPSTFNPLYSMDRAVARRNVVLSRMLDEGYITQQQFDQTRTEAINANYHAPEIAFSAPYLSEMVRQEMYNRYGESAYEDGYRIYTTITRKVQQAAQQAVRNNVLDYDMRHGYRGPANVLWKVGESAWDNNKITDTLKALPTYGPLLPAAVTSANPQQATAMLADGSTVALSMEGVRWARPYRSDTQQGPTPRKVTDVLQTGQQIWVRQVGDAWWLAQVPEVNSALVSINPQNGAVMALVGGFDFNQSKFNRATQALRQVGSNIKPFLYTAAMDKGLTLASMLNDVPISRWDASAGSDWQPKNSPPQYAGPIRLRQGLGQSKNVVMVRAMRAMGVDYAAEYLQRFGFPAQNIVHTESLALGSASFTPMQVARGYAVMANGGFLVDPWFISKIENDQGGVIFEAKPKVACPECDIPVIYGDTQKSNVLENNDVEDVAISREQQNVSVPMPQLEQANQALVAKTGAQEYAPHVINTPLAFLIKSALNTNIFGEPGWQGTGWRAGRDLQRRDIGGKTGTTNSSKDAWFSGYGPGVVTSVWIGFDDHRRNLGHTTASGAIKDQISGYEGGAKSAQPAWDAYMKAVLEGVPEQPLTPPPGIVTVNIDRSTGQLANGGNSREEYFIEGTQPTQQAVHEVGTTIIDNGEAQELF
- method.description: Radioligand competition binding assay with 14C-labeled boronic acid probe, PBP1a
Counter-ions that a name gives are not always drawn.
recorded.endpoint: EC50

CCN1CCN(C(=O)N[C@H](CCN)C(=O)N[C@H]2Cc3cccc(C(=O)O)c3OB2O)C(=O)C1=O [Example 17, trifluoroacetic acid salt]
< 10 µM
CCN1CCN(C(=O)NC(C(=O)N[C@H]2Cc3cccc(C(=O)O)c3OB2O)c2cc(O)c(O)c(Cl)c2)C(=O)C1=O (stereo partly drawn)
< 10 µM
NS(=O)(=O)c1ccc(C(NC(=O)N2CCN(CCF)C(=O)C2=O)C(=O)N[C@H]2Cc3cccc(C(=O)O)c3OB2O)cc1 (stereo partly drawn)
10 to 100 µM
Nc1ncc(C(NC(=O)N2CCN(CCF)C(=O)C2=O)C(=O)N[C@H]2Cc3cccc(C(=O)O)c3OB2O)s1 (stereo partly drawn)
10 to 100 µM
CCN1CCN(C(=O)NC(C(=O)N[C@H]2Cc3cccc(C(=O)O)c3OB2O)c2ccc(O)nc2F)C(=O)C1=O (stereo partly drawn)
< 10 µM
CCN1CCN(C(=O)NC(C(=O)N[C@H]2Cc3cccc(C(=O)O)c3OB2O)c2ccc(OCCF)cc2)C(=O)C1=O (stereo partly drawn)
< 10 µM

----------
- System: K. pneumoniae 848844
- method.description: microbe, parasite or virus in culture
- Type: cell-based, Klebsiella pneumoniae
- test.context: Klebsiella pneumoniae; K. pneumoniae 848844 producing SHV-11 and KPC-2; read-out: MIC K. pneumoniae 848844
- Description: To determine the ability of test compounds to potentiate the inhibition of the growth of bacterial strains, classic cell based broth microdilution minimum inhibitory concentration (MIC) assays were employed. […] Briefly, cryo-preserved bacterial cultures of challenge strains are streaked for isolation on appropriate agar medium, in this case Mueller Hinton II agar. […] The MIC values are read visually as the lowest concentration well with no bacterial growth.
Quick list: MIC per entry.
recorded.endpoint: MIC

CCN1CCN(C(=O)N[C@@H](C(=O)N[C@H]2Cc3cccc(C(=O)O)c3OB2O)c2ccc(S(N)(=O)=O)c(OC)c2)C(=O)C1=O
> 128 µg/mL
NCCCN1CCN(C(=O)N[C@@H](C(=O)N[C@H]2Cc3ccc(F)c(C(=O)O)c3OB2O)c2ccc(O)c(O)c2Cl)C(=O)C1=O
0.5 to 1 µg/mL
CCN1CCN(C(=O)NC(C(=O)N[C@H]2Cc3ccc(F)c(C(=O)O)c3OB2O)c2ncc(O)cc2F)C(=O)C1=O (some centres unmarked)
32 to 64 µg/mL
CCN1CCN(C(=O)NC(C(=O)N[C@H]2Cc3cccc(C(=O)O)c3OB2O)c2cccc(O)n2)C(=O)C1=O (some centres unmarked)
32 to 64 µg/mL
CCN1CCN(C(=O)NC(C(=O)N[C@H]2Cc3cccc(C(=O)O)c3OB2O)c2cc(O)c(O)cc2F)C(=O)C1=O (some centres unmarked)
32 to 64 µg/mL
CCN1CCN(C(=O)NC(C(=O)N[C@H]2Cc3cc(F)c(F)c(C(=O)O)c3OB2O)c2ccc(O)c(O)c2Cl)C(=O)C1=O (some centres unmarked)
2 to 4 µg/mL
CCN1C[C@@H](C)N(C(=O)NC(C(=O)N[C@H]2Cc3cccc(C(=O)O)c3OB2O)c2ncc(O)cc2F)C(=O)C1=O (some centres unmarked)
> 128 µg/mL
CCN1CCN(C(=O)NC(C(=O)N[C@H]2Cc3cc(F)cc(C(=O)O)c3OB2O)c2csc(N)n2)C(=O)C1=O (some centres unmarked)
32 to 64 µg/mL
NCCCN1CCN(C(=O)NC(C(=O)N[C@H]2Cc3cccc(C(=O)O)c3OB2O)c2ccc(O)c(O)c2Cl)C(=O)C1=O (some centres unmarked)
2 to 4 µg/mL
CCN1CCN(C(=O)N[C@H](C(=O)N[C@H]2Cc3ccc(F)c(C(=O)O)c3OB2O)c2ccc(O)c(O)c2Cl)C(=O)C1=O
8 to 16 µg/mL
CCN1CCN(C(=O)N[C@@H](C(=O)N[C@H]2Cc3ccc(F)c(C(=O)O)c3OB2O)c2ccc(O)c(O)c2Cl)C(=O)C1=O
2 to 4 µg/mL
NS(=O)(=O)c1ccc(C(NC(=O)N2CCN(CCF)C(=O)C2=O)C(=O)N[C@H]2Cc3cccc(C(=O)O)c3OB2O)c(F)c1 (some centres unmarked)
> 128 µg/mL
CCN1CC(C)(C)N(C(=O)NC(C(=O)N[C@H]2Cc3cccc(C(=O)O)c3OB2O)c2ncc(O)cc2F)C(=O)C1=O (some centres unmarked)
> 128 µg/mL
NCCN1CCN(C(=O)N[C@H](C(=O)N[C@H]2Cc3cccc(C(=O)O)c3OB2O)c2ncc(O)cc2F)C(=O)C1=O
> 128 µg/mL
CCN1C[C@H](C)N(C(=O)NC(C(=O)N[C@H]2Cc3ccc(F)c(C(=O)O)c3OB2O)c2ccc(O)c(O)c2Cl)C(=O)C1=O (some centres unmarked)
2 to 4 µg/mL
CCN1CCN(C(=O)NC(C(=O)N[C@H]2Cc3cccc(C(=O)O)c3OB2O)c2ncccc2F)C(=O)C1=O (some centres unmarked)
> 128 µg/mL
CCCN1CCN(C(=O)NC(C(=O)N[C@H]2Cc3cccc(C(=O)O)c3OB2O)c2ccc(O)c(O)c2Cl)C(=O)C1=O (some centres unmarked)
> 128 µg/mL
CCN1CCN(C(=O)NC(C(=O)N[C@H]2Cc3cccc(C(=O)O)c3OB2O)c2cccc(N)n2)C(=O)C1=O (some centres unmarked)
> 128 µg/mL
CCN1CCN(C(=O)N[C@H](C(=O)N[C@H]2Cc3ccc(F)c(C(=O)O)c3OB2O)c2ccc(O)c(F)c2)C(=O)C1=O
> 128 µg/mL
CCN1CCN(C(=O)NC(C(=O)N[C@H]2Cc3cccc(C(=O)O)c3OB2O)c2ncc(N)cc2F)C(=O)C1=O (some centres unmarked)
32 to 64 µg/mL
CCN1C[C@H](CCN)N(C(=O)NC(C(=O)N[C@H]2Cc3cccc(C(=O)O)c3OB2O)c2ncc(O)cc2F)C(=O)C1=O (some centres unmarked)
> 128 µg/mL
CCN1CCN(C(=O)NC(C(=O)N[C@H]2Cc3cccc(C(=O)O)c3OB2O)c2ncc(OC(C)=O)cc2F)C(=O)C1=O (some centres unmarked)
32 to 64 µg/mL
CCN1C[C@H](CO)N(C(=O)NC(C(=O)N[C@H]2Cc3cccc(C(=O)O)c3OB2O)c2ncc(O)cc2F)C(=O)C1=O (some centres unmarked)
> 128 µg/mL
O=C(O)c1c(F)ccc2c1OB(O)[C@@H](NC(=O)C(NC(=O)N1CCN(CCF)C(=O)C1=O)c1ncc(O)cc1F)C2 (some centres unmarked)
> 128 µg/mL
CCN1CCN(C(=O)NC(C(=O)N[C@H]2Cc3c(F)cc(F)c(C(=O)O)c3OB2O)c2ccc(O)c(O)c2Cl)C(=O)C1=O (some centres unmarked)
0.5 to 1 µg/mL
CS(=O)(=O)N1CCN(C(=O)NC(C(=O)N[C@H]2Cc3cccc(C(=O)O)c3OB2O)c2ccc(O)c(O)c2Cl)C1=O (some centres unmarked)
8 to 16 µg/mL

Provenance of the data: patent US12173018B2
